test: Binding affinity to miR-18a (unknown orgin) assessed as dissociation constant
measuredMetric: Kd (µM)
Kindly answer with a numeric value in µM, unit omitted.

Query: Data request, read-out Kd, for CN1CCN(c2ccc(-c3ccc4nc(-c5cc(C(C)(C)C)c(OCCCC(=O)NCCCN=[N+]=[N-])c(C(C)(C)C)c5)[nH]c4c3)cc2)CC1
Response: 32

---

assay: Binding affinity to r(CCUG)12 (unknown origin) assessed as dissociation constant
measuredMetric: Kd
In your response, put the unit directly after the numeric value.

Query: Data request, read-out Kd, for N=C(NCCCCNc1nc(N)nc(N)n1)c1ccc(C(=N)NCCCCNc2nc(N)nc(N)n2)cc1
Response: 8 µM

---

Below, each entry is listed with its recorded pKd.
assay: Binding affinity to TAR mRNA assessed as dissociation constant by ITC analysis
Lab note — pKd values are minus log10 of concentrations in M.

CN(C)CCCn1cc(CNC(=O)Cc2csc(NC(=O)Cc3csc(N)n3)n2)nn1 = 6.27

Now consider a different molecule.
Query: Data request, read-out pKd, for CN(C)CCCn1cc(CNC(=O)c2csc(NC(=O)c3csc(NC(=O)c4csc(N)n4)n3)n2)nn1
Response: 5.17

---

assay: Binding affinity to miR-21 (unknown origin) assessed as dissociation constant by fluorescence based analysis
measuredMetric: pKd
Lab note — pKd values are minus log10 of concentrations in M.

Query: Data request, read-out pKd, for CNC(=O)c1cc(Oc2ccc(NC(=O)Nc3ccc(Cl)c(C(F)(F)F)c3)c(F)c2)ccn1
Response: 6.14

---

experiment: Binding affinity to HIV-1 mRNA assessed as dissociation constant; parameters: species or system Human immunodeficiency virus 1
Below, each entry is listed with its recorded pKd.
Lab note — pKd values are minus log10 of concentrations in M.

CC(=O)Nc1nc(CC(=O)c2cccc(NC(=O)[C@@H](N)CCCCNC(=N)N)c2)cs1 = 6.96

Now consider a different compound.
Query: Data request, read-out pKd, for CC(=O)Nc1nc(-c2cccc(NC(=O)C(CNC(=O)[C@@H](N)CCCNC(=N)N)NC(=O)[C@@H](N)CCCNC(=N)N)c2)cs1 (some centres not stated)
Response: 5.62

---

system: Human immunodeficiency virus 1; experiment: Antiviral activity against HIV-1; assay type: functional, organism-based
measuredMetric: IC50 (nM)
Kindly answer with a numeric value in nM, unit omitted.

Query: Data request, read-out IC50, for CC(=O)Nc1nc(CC(=O)c2cccc(NC(=O)[C@@H](N)CCCCNC(=N)N)c2)cs1
Response: 410

---

assay: Binding affinity to Precursor microRNA-372 (unknown origin) assessed as dissociation constant
measuredMetric: Kd (nM)
Kindly answer with a numeric value in nM, unit omitted.

Query: Data request, read-out Kd, for CNc1ccc(C2c3ccccc3N=C(NCCCNCCCCNCCCN)C2(C)C)cc1 (stereo unspecified)
Response: 150

---

biological target: UniProt P10636
Sequence (P10636 whole entry): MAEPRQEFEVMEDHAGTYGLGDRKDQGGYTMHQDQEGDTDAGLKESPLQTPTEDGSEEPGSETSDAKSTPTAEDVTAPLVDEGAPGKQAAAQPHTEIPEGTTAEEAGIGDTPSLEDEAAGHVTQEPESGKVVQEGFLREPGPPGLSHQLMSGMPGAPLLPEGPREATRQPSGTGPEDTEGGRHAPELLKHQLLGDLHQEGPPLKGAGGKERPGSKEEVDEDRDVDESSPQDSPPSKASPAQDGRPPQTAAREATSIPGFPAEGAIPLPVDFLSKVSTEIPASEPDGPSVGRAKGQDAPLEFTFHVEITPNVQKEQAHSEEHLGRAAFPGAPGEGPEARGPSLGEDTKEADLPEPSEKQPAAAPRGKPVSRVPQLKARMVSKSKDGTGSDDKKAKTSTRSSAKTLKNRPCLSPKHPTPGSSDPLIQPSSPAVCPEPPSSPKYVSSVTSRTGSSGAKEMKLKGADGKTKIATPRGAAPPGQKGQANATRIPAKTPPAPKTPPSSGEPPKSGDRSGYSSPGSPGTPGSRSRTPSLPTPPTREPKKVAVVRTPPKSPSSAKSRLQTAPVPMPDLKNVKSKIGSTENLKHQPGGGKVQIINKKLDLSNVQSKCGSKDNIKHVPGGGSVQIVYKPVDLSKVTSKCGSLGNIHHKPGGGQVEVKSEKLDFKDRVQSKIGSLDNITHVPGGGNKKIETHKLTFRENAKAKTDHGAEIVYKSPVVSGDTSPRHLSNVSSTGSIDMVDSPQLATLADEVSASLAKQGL
measuredMetric: pKd
Lab note — pKd values are minus log10 of concentrations in M.

Query: Data request, read-out pKd, for COc1ccc2[nH]c3c(c2c1)N=CN(CCCN(C)C1CCCCC1)C3
Response: 5.31

---

assay: Inhibition of Precursor microRNA-372 (unknown origin) assessed as inhibition of Dicer-induced pre-miR-372 cleavage
measuredMetric: pIC50
Lab note — pIC50 values are minus log10 of concentrations in M.

Query: Data request, read-out pIC50, for CNc1ccc(C2c3ccccc3N=C(NCCCNCCCCNCCCN)C2(C)C)cc1 (stereo unspecified)
Response: 5.97
